- System name: human CB2 receptor (Homo sapiens, UniProt P34972)
- Sequence (P34972 whole entry): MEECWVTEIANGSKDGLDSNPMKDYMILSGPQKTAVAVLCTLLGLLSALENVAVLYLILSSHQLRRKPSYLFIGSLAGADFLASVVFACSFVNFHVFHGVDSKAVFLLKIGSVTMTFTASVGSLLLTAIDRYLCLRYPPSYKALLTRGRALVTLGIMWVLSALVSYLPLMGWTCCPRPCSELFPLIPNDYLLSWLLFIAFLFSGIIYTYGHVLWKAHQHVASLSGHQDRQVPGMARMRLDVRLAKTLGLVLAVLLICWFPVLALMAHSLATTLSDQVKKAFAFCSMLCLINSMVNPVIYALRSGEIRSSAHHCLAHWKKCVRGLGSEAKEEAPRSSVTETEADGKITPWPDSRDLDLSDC
A collection of molecules and their measured IC50
Measured parameter: IC50

Molecule: CCCCCc1cc2c(c3c1C(=O)OC(CC(C)=O)(c1ccccc1)O3)[C@@H]1C=C(C)CC[C@H]1C(C)(C)O2 (stereo partly shown) [Compound 12b]
Obs value: > 5000 nM

Molecule: CCCCCc1cc2c(c3c1C(=O)OC(C)(C)O3)[C@@H]1C=C(C)CC[C@H]1C(C)(C)O2
Obs value: < 500 nM

Molecule: CCCCCc1cc2c(c3c1C(=O)OC(CC(C)=O)(c1ccc(OC)cc1)O3)[C@@H]1C=C(C)CC[C@H]1C(C)(C)O2 (stereo partly shown) [Compound 21b]
Obs value: 1000 to 4990 nM

Molecule: CCCCCc1cc2c(c3c1C(=O)OC(c1ccccc1)O3)[C@@H]1C=C(C)CC[C@H]1C(C)(C)O2 (stereo partly shown)
Obs value: 1000 to 4990 nM

----------
A collection of compounds and their measured IC50
- System name: human CB1 receptor (Homo sapiens)
- Sequence (P21554 whole entry): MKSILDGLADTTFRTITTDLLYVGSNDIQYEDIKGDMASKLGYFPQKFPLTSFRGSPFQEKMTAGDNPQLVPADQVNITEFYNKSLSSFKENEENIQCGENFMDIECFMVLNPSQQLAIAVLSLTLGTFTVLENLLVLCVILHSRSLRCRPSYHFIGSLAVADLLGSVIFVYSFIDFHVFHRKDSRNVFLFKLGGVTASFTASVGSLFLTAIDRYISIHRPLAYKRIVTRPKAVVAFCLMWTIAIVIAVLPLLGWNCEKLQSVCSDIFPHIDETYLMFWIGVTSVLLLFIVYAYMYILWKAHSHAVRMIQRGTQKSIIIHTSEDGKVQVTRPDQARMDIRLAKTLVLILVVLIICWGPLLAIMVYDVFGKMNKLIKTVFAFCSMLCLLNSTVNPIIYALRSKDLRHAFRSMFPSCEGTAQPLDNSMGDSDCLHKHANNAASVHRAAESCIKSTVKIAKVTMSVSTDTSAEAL
- Protocol description: biochemical
- Format: binding
- Parameters: host or cells: CHO-K1 (Chinese hamster ovary) cells, stably transfected; membranes prepared in house

Compound: CCCCCc1cc2c(c3c1C(=O)OC(CC(C)=O)(c1ccc(OC)cc1)O3)[C@@H]1C=C(C)CC[C@H]1C(C)(C)O2 (stereo partly drawn) [Compound 21b]
IC50: 1000 to 4990 nM
--
Compound: CCCCCc1cc2c(c3c1C(=O)OC(CC(C)=O)(c1ccc(F)cc1)O3)[C@@H]1C=C(C)CC[C@H]1C(C)(C)O2 (stereo partly drawn) [Compound 13b]
IC50: 1000 to 4990 nM
--
Compound: CCCCCc1cc2c(c3c1C(=O)OC(CC(C)=O)(c1ccc(Cl)cc1)O3)[C@@H]1C=C(C)CC[C@H]1C(C)(C)O2 (stereo partly drawn) [Compound 23b]
IC50: 1000 to 4990 nM

----------
A collection of compounds and their measured Selectivity CB1
- System name: human CB1 receptor (Homo sapiens)
- Protocol description: biochemical
- Format: binding
- Set-up: host or cells: CHO-K1 (Chinese hamster ovary) cells, stably transfected; membranes prepared in house
- Stated conditions: fold difference in binding between CB1 and CB2, shown in the column of the receptor with higher affinity; 1.00 in both = about the same affinity
Measured parameter: Selectivity CB1

Compound: CCCCCc1cc2c(c3c1C(=O)OC(CC(C)=O)O3)[C@@H]1C=C(C)CC[C@H]1C(C)(C)O2 (stereo partly drawn) [Compound 14b]
Obs value: 2.69 fold
--
Compound: CCCCCc1cc2c(c3c1C(=O)OC(CC(C)=O)(c1ccc(OC)cc1)O3)[C@@H]1C=C(C)CC[C@H]1C(C)(C)O2 (stereo partly drawn) [Compound 21b]
Obs value: 1.00 fold
--
Compound: CCCCCc1cc2c(c3c1C(=O)OC(c1ccccc1)O3)[C@@H]1C=C(C)CC[C@H]1C(C)(C)O2 (stereo partly drawn) [Compound 3b]
Obs value: 1.62 fold
--
Compound: CCCCCc1cc2c(c3c1C(=O)OC(C)O3)[C@@H]1C=C(C)CC[C@H]1C(C)(C)O2 (stereo partly drawn) [Compound 16b]
Obs value: 1.50 fold
--
Compound: CCCCCc1cc2c(c3c1C(=O)OC(CC(C)=O)(c1ccc(Cl)cc1)O3)[C@@H]1C=C(C)CC[C@H]1C(C)(C)O2 (stereo partly drawn) [Compound 23b]
Obs value: 1.00 fold
--
Compound: CCCCCc1cc2c(c3c1C(=O)OC(CC(C)=O)(c1ccc(F)cc1)O3)[C@@H]1C=C(C)CC[C@H]1C(C)(C)O2 (stereo partly drawn) [Compound 13b]
Obs value: 1.00 fold
